- Assay System: CSNK1E (human) (UniProt P49674)
- Sequence (P49674 whole entry, looked up): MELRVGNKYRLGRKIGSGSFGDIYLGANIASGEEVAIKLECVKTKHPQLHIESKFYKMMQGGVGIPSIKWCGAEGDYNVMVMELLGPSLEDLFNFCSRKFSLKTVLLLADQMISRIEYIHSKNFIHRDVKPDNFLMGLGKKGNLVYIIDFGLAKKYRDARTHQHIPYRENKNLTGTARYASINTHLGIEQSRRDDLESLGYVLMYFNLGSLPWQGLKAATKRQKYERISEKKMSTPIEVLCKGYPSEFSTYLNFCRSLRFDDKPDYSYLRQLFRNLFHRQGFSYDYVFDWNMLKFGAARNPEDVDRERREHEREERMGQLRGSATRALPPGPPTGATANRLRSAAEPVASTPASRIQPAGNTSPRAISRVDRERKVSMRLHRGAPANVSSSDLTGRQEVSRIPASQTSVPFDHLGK
- Run Description: radiometric filter-binding kinase assay, Kinase HotSpot
- Condition Details: compound 0.5 µM; ATP 10 µM
Measured Attribute: residual activity (%)

structure_string=COc1ccc2c(c1)c(C1=C(c3c[nH]c4ccccc34)C(=O)NC1=O)cn2CCCN(C)C measured_attribute="residual activity" recorded_result=86.4
structure_string=CCCCc1c(-c2ccc(OC)cc2)[nH]c2nccnc12 measured_attribute="residual activity" recorded_result=109
structure_string=COc1ccc(C(=O)Nc2sc3c(c2C(N)=O)CCCC3)cc1OC measured_attribute="residual activity" recorded_result=94
structure_string=Cc1cccc(-c2nc(C(C)(C)C)[nH]c2-c2ccc3c(c2)OCO3)n1 measured_attribute="residual activity" recorded_result=71.5
structure_string=O=C1Nc2ccc(Br)cc2/C1=C\c1cc2c([nH]1)CCCC2 measured_attribute="residual activity" recorded_result=84.3
structure_string=Cc1nc(-c2ccccc2)c(-c2ccncc2)o1 measured_attribute="residual activity" recorded_result=69.9
structure_string=c1ccc2c(-c3ccncc3)c[nH]c2c1 measured_attribute="residual activity" recorded_result=100
structure_string=CN(C)CCCn1cc(C2=C(c3c[nH]c4ccccc34)C(=O)NC2=O)c2ccccc21 measured_attribute="residual activity" recorded_result=96.3
structure_string=O=C1c2ccccc2-c2nc3nnnn3nc21 measured_attribute="residual activity" recorded_result=80.6
structure_string=Ic1cccc(CSc2nnc(-c3ccncc3)o2)c1 measured_attribute="residual activity" recorded_result=94.3
structure_string=O=C(c1cc2cc(O)ccc2[nH]1)c1cc2cc(O)ccc2[nH]1 measured_attribute="residual activity" recorded_result=88.4
structure_string=COc1ccc(Cl)cc1NC(=O)Nc1cc(C)nc2ccccc12 measured_attribute="residual activity" recorded_result=86.4
structure_string=O=C1C(Cl)=C(N2C(=O)CCC2=O)C(=O)c2ccccc21 measured_attribute="residual activity" recorded_result=102
structure_string=N#C/C(=C\c1ccc(O)c(O)c1)C(=O)NCc1ccccc1 measured_attribute="residual activity" recorded_result=86.3
structure_string=COc1ccc2c(c1)/C(=C/c1cnc[nH]1)C(O)=N2 measured_attribute="residual activity" recorded_result=80
structure_string=Fc1ccc(-c2nc3n(c2-c2ccncc2)CCS3)cc1 measured_attribute="residual activity" recorded_result=20
structure_string=C[C@@H]1CCN(C(=O)CC#N)C[C@@H]1N(C)c1ncnc2[nH]ccc12 measured_attribute="residual activity" recorded_result=101
structure_string=COc1cc(Nc2c(C#N)cnc3cc(OCCCN4CCN(C)CC4)c(OC)cc23)c(Cl)cc1Cl measured_attribute="residual activity" recorded_result=11.4
structure_string=Cn1c2ccccc2c2c3c(c4c5ccccc5n(CCC#N)c4c21)CNC3=O measured_attribute="residual activity" recorded_result=80.4
structure_string=CS(=O)(=O)CCNCc1ccc(-c2ccc3ncnc(Nc4ccc(OCc5cccc(F)c5)c(Cl)c4)c3c2)o1 measured_attribute="residual activity" recorded_result=99.4
